Entry source: patent US9409952B2

Known Papp at 18 hours, 50 µM of a selection of compounds
- Assay Explanation: PAMPA (parallel artificial membrane permeability assay)
- Type: in vitro ADME
- Measurement Context: PAMPA, pH 6.5
Starred links: 1 amine or outer side, 2 acyl side, 3 side chain; linkers in the order of their positions; H or OH if unused. Positions of bridges follow the written chain, without caps; N, C: chain ends. Non-standard residues stand in square brackets, D forms with d. Residues, ends and D or L forms follow the SMILES beside them. *: point of attachment. NMeF = CN[C@@H](Cc1ccccc1)C(=O)O; NMeI = CC[C@H](C)[C@H](NC)C(=O)O; NMeβAla = CN(CCC(=O)[*:2])[*:1]; NMeL = CN[C@@H](CC(C)C)C(=O)O; NMeV = CN[C@H](C(=O)O)C(C)C; NMeA = CN[C@@H](C)C(=O)O; Piperidide = C1CCN(*)CC1; Sar = CNCC(=O)O
# number only, unit ×10⁻⁶ cm/s dropped from output

# count of solved cases: 4
Compound | Output Unit | Papp at 18 hours, 50 µM
CC(C)C[C@H]1C(=O)N[C@@H](Cc2ccccc2)C(=O)N[C@H](C(=O)N(C)[C@@H](Cc2ccccc2)C(=O)N[C@@H](C)C(=O)N2CCCCC2)CC(=O)N(C)[C@@H](C)C(=O)N[C@@H]([C@@H](C)O)C(=O)N(C)[C@@H](C)C(=O)N[C@@H](C(C)C)C(=O)N(C)CC(=O)N(C)[C@@H](Cc2ccccc2)C(=O)N1C [DP-311] ([NMeA]T[NMeA]V[Sar][NMeF][NMeL]FD[NMeF]A-Piperidide; lactam N-9) | ×10⁻⁶ cm/s | 48
CC(C)C[C@@H]1NC(=O)[C@H](CC(C)C)NC(=O)[C@H](C)N(C)C(=O)C[C@@H](C(=O)N2CCCCC2)NC(=O)[C@H](C(C)C)N(C)C(=O)[C@H](CC(C)C)NC(=O)[C@H](Cc2ccccc2)NC(=O)[C@H]([C@@H](C)O)NC(=O)CN(C)C(=O)[C@H](CC(C)C)NC(=O)[C@H](C)NC1=O [DP-111] ([NMeA]LLAL[Sar]TFL[NMeV]D-Piperidide; lactam N-11) | ×10⁻⁶ cm/s | 12
CC[C@H](C)[C@H]1C(=O)N(C)[C@@H](CC(C)C)C(=O)N[C@H](C(=O)N2CCCCC2)CC(=O)N[C@H](C)C(=O)N[C@@H]([C@@H](C)O)C(=O)N(C)[C@@H](C)C(=O)N(C)[C@@H](Cc2ccccc2)C(=O)N2CCC[C@H]2C(=O)N[C@@H](C)C(=O)N(C)[C@@H](C(C)C)C(=O)N[C@@H](Cc2ccccc2)C(=O)N1C [DP-65] ([dA]T[NMeA][NMeF]PA[NMeV]F[NMeI][NMeL]D-Piperidide; lactam N-11) | ×10⁻⁶ cm/s | 14
CC(C)C[C@H]1C(=O)N[C@@H](C(C)C)C(=O)N(C)[C@@H](Cc2ccccc2)C(=O)N(C)[C@@H](CC(C)C)C(=O)N(C)[C@@H](CC(C)C)C(=O)N[C@H](C(=O)N(C)[C@@H](Cc2ccccc2)C(=O)N(C)[C@@H](Cc2ccccc2)C(=O)N[C@@H](C)C(=O)N2CCCCC2)CC(=O)N(C)CCC(=O)N[C@@H]([C@@H](C)O)C(=O)N(C)[C@@H](C)C(=O)N1C [DP-397] ([NMeβAla]T[NMeA][NMeL]V[NMeF][NMeL][NMeL]D[NMeF][NMeF]A-Piperidide; lactam N-9) | ×10⁻⁶ cm/s | 11

Okay, next one:
// Papp at 18 hours, 50 µM lookup, key: CC[C@H](C)[C@H]1C(=O)N(C)[C@@H](Cc2ccccc2)C(=O)NCC(=O)N[C@@H]([C@@H](C)O)C(=O)N[C@@H](Cc2ccccc2)C(=O)N(C)[C@@H](CC(C)C)C(=O)N2CCC[C@H]2C(=O)N[C@H](C(=O)N2CCCCC2)CC(=O)N[C@H](C)C(=O)N[C@@H](CC(C)C)C(=O)N(C)[C@@H](C)C(=O)N[C@@H](CC(C)C)C(=O)N1C [DP-54] ([dA]L[NMeA]L[NMeI][NMeF]GTF[NMeL]PD-Piperidide; lactam N-12) 15

----------
Below, each of the compounds is paired with its reported microsomal CLint at 1 uM value.
- Assay Explanation: Metabolic stability in human hepatic microsome
- Type: in vitro ADME
- Measurement Context: microsomes, pH 7.4; human hepatic microsome, NADPH(+); read-out: CL NADPH(+)
Starred links: 1 amine or outer side, 2 acyl side, 3 side chain; linkers in the order of their positions; H or OH if unused. Positions of bridges follow the written chain, without caps; N, C: chain ends. Non-standard residues stand in square brackets, D forms with d. Residues, ends and D or L forms follow the SMILES beside them. *: point of attachment. Phe(4-(CH2)5CO) = O=C([C@H](Cc1ccc(CCCCCC(=O)[*:3])cc1)N[*:1])[*:2]; NMePhe(3-Cl) = CN[C@@H](Cc1cccc(Cl)c1)C(=O)O; NMeF = CN[C@@H](Cc1ccccc1)C(=O)O; NMeGABA = CN(CCCC(=O)[*:2])[*:1]; NMeI = CC[C@H](C)[C@H](NC)C(=O)O; NMeL = CN[C@@H](CC(C)C)C(=O)O; NMeV = CN[C@H](C(=O)O)C(C)C; NMeA = CN[C@@H](C)C(=O)O; Piperidide = C1CCN(*)CC1; dNMeA = CN[C@H](C)C(=O)O; Sar = CNCC(=O)O; tBu = CC(C)(C)*
Please state the number and follow it with the unit.

microsomal CLint at 1 uM lookup needed for CC[C@H](C)[C@@H]1NC(=O)[C@H](C(C)C)N(C)C(=O)[C@@H](C)N(C)C(=O)C[C@@H](C(=O)N2CCCCC2)NC(=O)[C@H](CC(C)C)NC(=O)[C@H](Cc2ccccc2)N(C)C(=O)[C@H](CC(C)C)N(C)C(=O)[C@H](Cc2ccccc2)NC(=O)[C@H]([C@@H](C)O)NC(=O)[C@H](CC(C)C)NC1=O [DP-339] ([dNMeA][NMeV]ILTF[NMeL][NMeF]LD-Piperidide; lactam N-10) , thanks. 213 µL/min/mg

Try this compound too: CC(C)C[C@@H]1NC(=O)[C@H](CC(C)C)N(C)C(=O)[C@H](Cc2ccccc2)N(C)C(=O)[C@H]([C@@H](C)O)NC(=O)[C@H](CC(C)C)N(C)C(=O)CN(C)C(=O)CCCN(C)C(=O)C[C@@H](C(=O)N2CCCCC2)NC1=O [DP-713] ([NMeGABA][Sar][NMeL]T[NMeF][NMeL]LD-Piperidide; lactam N-8) 169 µL/min/mg

Okay, and CC[C@H](C)[C@H]1C(=O)N[C@@H](C)C(=O)N(C)[C@@H](CC(C)C)C(=O)N[C@@H](COC(C)(C)C)C(=O)N(C)[C@@H](CC(C)C)C(=O)N[C@H](C(=O)N2CCCCC2)Cc2ccc(cc2)CCCCCC(=O)N[C@@H](Cc2ccccc2)C(=O)N(C)[C@@H](Cc2ccccc2)C(=O)N(C)[C@@H](CC(C)C)C(=O)N[C@@H]([C@@H](C)O)C(=O)N(C)[C@@H](C)C(=O)N1C [DP-873] (F[NMeF][NMeL]T[NMeA][NMeI]A[NMeL]S(tBu)[NMeL][Phe(4-(CH2)5CO)]-Piperidide; lactam N-11) ? 39 µL/min/mg

Field entry: CC[C@H](C)[C@@H]1NC(=O)[C@H](Cc2ccccc2)N(C)C(=O)[C@H](Cc2ccccc2)NC(=O)[C@H](CC(C)C)N(C)C(=O)[C@H](C(C)C)NC(=O)[C@H](CC(C)C)NC(=O)CCCCCc2ccc(cc2)C[C@@H](C(=O)N2CCCCC2)NC(=O)[C@H]([C@@H](C)O)NC(=O)[C@H](CC(C)C)NC(=O)[C@H](C)N(C)C1=O [DP-892] (LV[NMeL]F[NMeF]I[NMeA]LT[Phe(4-(CH2)5CO)]-Piperidide; lactam N-10) 57 µL/min/mg

Quick one: CC[C@H](C)[C@@H]1NC(=O)[C@H](CC(C)C)NC(=O)[C@H](C)N(C)C(=O)[C@H](CC(C)C)N(C)C(=O)[C@H](CC(C)C)NC(=O)[C@H](Cc2cccc(Cl)c2)N(C)C(=O)[C@H]([C@@H](C)O)NC(=O)[C@H](C)N(C)C(=O)[C@H](C(C)C)NC(=O)[C@H](C)N(C)C(=O)C[C@@H](C(=O)N(C)[C@@H](Cc2ccccc2)C(=O)N(C)[C@@H](CC(C)C)C(=O)N[C@H](C(=O)N2CCCCC2)[C@@H](C)CC)NC1=O [DP-950] ([NMeA]V[NMeA]T[NMePhe(3-Cl)]L[NMeL][NMeA]LID[NMeF][NMeL]I-Piperidide; lactam N-11) 12 µL/min/mg

----------
- Assay Explanation: Metabolic stability in human hepatic microsome
- Type: in vitro ADME
- Measurement Context: microsomes, pH 7.4; human hepatic microsome, NADPH(+); read-out: CL NADPH(+)
Positions of bridges follow the written chain, without caps; N, C: chain ends. Non-standard residues stand in square brackets, D forms with d. Residues, ends and D or L forms follow the SMILES beside them. *: point of attachment. NMeA = CN[C@@H](C)C(=O)O; Piperidide = C1CCN(*)CC1; Sar = CNCC(=O)O
Here, each record is paired with measured microsomal CLint at 1 uM data.
Be sure to follow the number with its unit.

Molecule | microsomal CLint at 1 uM
C=C1CCC(=O)N[C@@H](CC(C)C)C(=O)N(C)[C@@H](CC(C)C)C(=O)N(C)[C@@H]([C@@H](C)CC)C(=O)N[C@@H](C)C(=O)N(C)[C@@H](Cc2ccccc2)C(=O)N[C@@H]([C@@H](C)O)C(=O)N(C)CC(=O)N(C)[C@@H](Cc2ccccc2)C(=O)N(C)[C@@H](CC(C)C)C(=O)N[C@H](C(=O)N2CCCCC2)Cc2ccc1cc2 | 171 µL/min/mg

Now let's try a different one.
Find the recorded microsomal CLint at 1 uM belonging to CC(C)C[C@@H]1NC(=O)CN(C)C(=O)[C@H](CC(C)C)NC(=O)[C@H](C)NC(=O)[C@H](CC(C)C)NC(=O)[C@H](CC(C)C)NC(=O)[C@H](C)N(C)C(=O)C[C@@H](C(=O)N2CCCCC2)NC(=O)[C@H]([C@@H](C)O)NC(=O)[C@H](Cc2ccccc2)NC(=O)[C@H](CC(C)C)NC1=O [DP-420] ([NMeA]LLAL[Sar]LLFTD-Piperidide; lactam N-11) and report it. 69 µL/min/mg
